target entity: human Y4 receptor (human, UniProt P50391 1-375)
Sequence (P50391 whole entry): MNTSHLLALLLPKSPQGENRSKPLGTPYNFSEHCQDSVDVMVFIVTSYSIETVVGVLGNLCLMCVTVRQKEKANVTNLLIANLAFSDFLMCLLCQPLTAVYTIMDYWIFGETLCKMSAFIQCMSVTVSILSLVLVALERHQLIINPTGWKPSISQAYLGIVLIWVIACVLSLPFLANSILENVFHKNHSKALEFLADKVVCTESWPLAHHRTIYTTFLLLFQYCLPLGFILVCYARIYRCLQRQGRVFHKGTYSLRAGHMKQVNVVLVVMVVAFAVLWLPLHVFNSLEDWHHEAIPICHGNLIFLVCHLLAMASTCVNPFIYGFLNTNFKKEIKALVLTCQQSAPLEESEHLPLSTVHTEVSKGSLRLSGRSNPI
experiment summary: 125I-PP displacement
parameter measured: IC50 (nM)

Here's what some known entries look like.
{"binder": "APLEPVYPGDNATPEQMAKYAADLRRYINMLTRPRY [compound of SEQ ID NO:224 (Lys 19, code 4055291)]", "measurement units": "nM", "IC50": 0.32}
{"binder": "PAPLEPTYPGDNATPEQMAKYAAELRRYINFLTRPRY [7253]", "measurement units": "nM", "IC50": 0.095}
{"binder": "APLEPVYPGDDATPEQMAQYAAELRRYINMLTRPRY [4055195]", "measurement units": "nM", "IC50": 0.86}
{"binder": "PAPLEPVYPGDNATPEQMARYAAALRRYINKLTRPRY [7243]", "measurement units": "nM", "IC50": 0.058}
{"binder": "APLEPVYPGDNATPEQMAQYAADLRRYINMLTRPHY [4054987]", "measurement units": "nM", "IC50": 0.72}
{"binder": "PAPLEPEYPGDDATPQQMARYAAELRRYINFLTRPRY [7257]", "measurement units": "nM", "IC50": 0.142}
{"binder": "APLEPVYPGDNATPEQMARYAAALRRYINMLTRPRY [7242]", "measurement units": "nM", "IC50": 0.14}
{"binder": "PAPLEPVYPGDNATPEQIARYAAALRRYINKLTRPRY [7244]", "measurement units": "nM", "IC50": 0.106}

(I) APLEPVYPGDNATPEQMAQYYASLRHYLNLVTRPRY [4055245]
(II) APLEPVYPGDNATPEQMAQYAADLRRYINMLTRPQY [4054977]
(III) PAPLEPTYPGDDATPQQMAKYAAALRRYINILTRPRY [7268]
Arrange the 3 binders from largest to smallest IC50. Labels, requested order. II, I, III
